# System: MILI (PIWIL2) piRISC loaded with L1MC piRNA (26 nt);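 also: 1 nM active piRISC with 0.1 nM target library at 33 °C single turnover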
# protocol: pre-steady-state target cleavage rate (min^-1); guide: L1MC piRNA 5'p-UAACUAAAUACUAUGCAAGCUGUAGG; higher = faster piRNA-guided slicing of the target
# conditions-used: auxiliary factor: 500 nM mouse GTSF1
Listed here are sequences together with their documented pre-steady-state target cleavage rate.
Write no unit; give the number alone.

Illustrative cases are given below, each with its answer.
Name the recorded pre-steady-state target cleavage rate for UCCUGGAUGUCGUUGCAUAGUAUUUAGUUG [g2:g18:cont:t1G] .
0.1

Tell me the measured pre-steady-state target cleavage rate of `UCCUGGAUGUCGAUGCCUAGUAUUUAGUUA` , please.
0.0127

Given the entry `UCCUGGAACUGCUUGCUUAGUAUUUAGUUA` , report its measured pre-steady-state target cleavage rate.
0.206

Requested read-out: pre-steady-state target cleavage rate. Entry: `UCCUGGAUCAGCUUGCAUAGUUUUUAGUUA`
0.0479

Data request, read-out pre-steady-state target cleavage rate, for `UCCUGCUACAGCUUGCAUAGUAUUUAGGUA`
0.143

Could you now look at the following sequence, please?
For `UCCUGGAACACCUAGCAUAGUAUUUAGUUA` , what is its reported pre-steady-state target cleavage rate?
0.229

----------
# System: MILI (PIWIL2) piRISC loaded with piRNA #1 (26 nt);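 also: 1 nM active piRISC with 0.1 nM target library at 33 °C single turnover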
# protocol: pre-steady-state target cleavage rate (min^-1); guide: piRNA #1 5'p-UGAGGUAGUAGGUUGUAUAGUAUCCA; higher = faster piRNA-guided slicing of the target
# conditions-used: auxiliary factor: 500 nM mouse GTSF1
Use t when the recorded pre-steady-state target cleavage rate is no lower than 0.03; use f when it is lower.

Hello, I need to know if `GGAGACCUAUCUAUUACAACCUACUACCUCA` has measured pre-steady-state target cleavage rate not below 0.03. Thanks!
t

Does the reported pre-steady-state target cleavage rate for `GGAGAGGAUACUAUACAAGCUACUUCCUCA` fall at or above the 0.03 mark?
t

Given `GGAGUGGAUACUAUAGAAGCUACUACCUCA` , state whether its pre-steady-state target cleavage rate is at least 0.03.
t

# bool: pre-steady-state target cleavage rate of `GGAGAGCAUACUAUACAACCUACUACGUCA` >= 0.03
t

Identify whether the reported pre-steady-state target cleavage rate of the following sequence is 0.03 or greater: `GGAGACGAUAGUAUACAUCCUACUACCUCA`
t

I'd appreciate it if you could say whether `GGAGACCUUACAUACAACCUACUACCUCA` has pre-steady-state target cleavage rate at least equal to 0.03.
f

Reported pre-steady-state target cleavage rate reaches at least 0.03 for `GGAGACCAUAGUAUACAACGUACUACCUCA` ?
f

Record `GGAGACCUUUCUAUACAACCUACUUCCUCA` ; criterion: pre-steady-state target cleavage rate no lower than 0.03. Met?
t

Is reported pre-steady-state target cleavage rate greater than or equal to 0.03 here: `GGAGUGGAUCACUAUACAACCUACUACCUCA`
t

Given `GGAGACGAUACUAUACUACCUUCUACCUCA` , state whether its pre-steady-state target cleavage rate is at least 0.03.
f

Hi team, for `GGAGAGGAUAUAUACAACCUACUACCUCA` , is the recorded pre-steady-state target cleavage rate at or above 0.03?
t

Can `GGAGACCUAUGAAUACAACCUAGCUACCUCA` be said to have pre-steady-state target cleavage rate at or above 0.03?
f

Hello, I need to know if `GGAGACCAUACUAUACGACCUACUACCUCA` has measured pre-steady-state target cleavage rate not below 0.03. Thanks!
t

Can `GGAGUGGAUUCAAUACAACCUACUACCUCA` be said to have pre-steady-state target cleavage rate at or above 0.03?
t

----------
# System: MILI (PIWIL2) piRISC loaded with piRNA #1 (26 nt);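 also: 1 nM active piRISC with 0.1 nM target library at 33 °C single turnover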
# protocol: pre-steady-state target cleavage rate (min^-1); guide: piRNA #1 5'p-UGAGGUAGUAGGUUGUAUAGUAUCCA; higher = faster piRNA-guided slicing of the target
# conditions-used: auxiliary factor: 500 nM mouse GTSF1
reported-endpoint: pre-steady-state target cleavage rate

Look up pre-steady-state target cleavage rate for this sequence: `GGAGACCUAUGAUAACAACCUACUUGGUCA`
< 0.0001

Consider the sequence shown here: `GGAGACCUAUGAUAUCAAGGAACUACCUCA` What is its recorded pre-steady-state target cleavage rate?
< 0.0001

// next entry
Using the record for `GGAGACCUAUGAUAUGAAGGAACUACCUCA` , report its pre-steady-state target cleavage rate.
< 0.0001

----------
Each entry below carries its reported pre-steady-state target cleavage rate.
# Test system: MILI (PIWIL2) piRISC loaded with L1MC piRNA (26 nt);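 also: 1 nM active piRISC with 0.1 nM target library at 33 °C single turnover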
# protocol: pre-steady-state target cleavage rate (min^-1); guide: L1MC piRNA 5'p-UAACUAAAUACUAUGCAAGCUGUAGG; higher = faster piRNA-guided slicing of the target
# conditions-used: auxiliary factor: none (no GTSF1)
Respond numerically, and do not add a unit to the figure.

Some sequences with recorded pre-steady-state target cleavage rate:
Please provide the recorded pre-steady-state target cleavage rate for `UCCUGGAUGUCGUCGCAUAGUAUUUAGUUA` , tested on MILI (PIWIL2) piRISC loaded with L1MC piRNA (26 nt).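 Also: 1 nM active piRISC with 0.1 nM target library at 33 °C single turnover.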
0.00436

For the record `UCCUGGAUCAGCUUGCAUAGGUAUUUAGUUA` , what value of pre-steady-state target cleavage rate is listed for MILI (PIWIL2) piRISC loaded with L1MC piRNA (26 nt)?;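 also: 1 nM active piRISC with 0.1 nM target library at 33 °C single turnover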
0.00357

Request: pre-steady-state target cleavage rate, test system MILI (PIWIL2) piRISC loaded with L1MC piRNA (26 nt), entry `UCCUCCUACAGCUUGCAUAGUAUUCUAGUUA`;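 also: 1 nM active piRISC with 0.1 nM target library at 33 °C single turnover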
0.00537

New cases:
Lab note: need pre-steady-state target cleavage rate for `UCCUGCUACACCAUGCAUAGUAUUUAGUUA` on MILI (PIWIL2) piRISC loaded with L1MC piRNA (26 nt), anyone have it?;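 also: 1 nM active piRISC with 0.1 nM target library at 33 °C single turnover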
0.00794

Query for MILI (PIWIL2) piRISC loaded with L1MC piRNA (26 nt): what pre-steady-state target cleavage rate does the record show for `UCCUGGAUGAGCUUGCAUAGUAUUUAGUUUA` ?
0.0105

Lab note: need pre-steady-state target cleavage rate for `UCCUGGAUGAGCUAGCAUAGUAUUUAGUUA` on MILI (PIWIL2) piRISC loaded with L1MC piRNA (26 nt), anyone have it?;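 also: 1 nM active piRISC with 0.1 nM target library at 33 °C single turnover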
0.00679

Test system MILI (PIWIL2) piRISC loaded with L1MC piRNA (26 nt); read-out pre-steady-state target cleavage rate; what value for `UCCUCCUACAGCUUGCAUAGUACUUUAGUUA` ?;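 also: 1 nM active piRISC with 0.1 nM target library at 33 °C single turnover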
0.00628

State its pre-steady-state target cleavage rate on MILI (PIWIL2) piRISC loaded with L1MC piRNA (26 nt): `UCCUGGAUCAGCUUGCUUAGUAUUUACUUA`;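 also: 1 nM active piRISC with 0.1 nM target library at 33 °C single turnover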
0.00642

Reported pre-steady-state target cleavage rate for MILI (PIWIL2) piRISC loaded with L1MC piRNA (26 nt), given `UCCUGCUACAGCUUGCAUUGUAUUUACUUA` ?;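 also: 1 nM active piRISC with 0.1 nM target library at 33 °C single turnover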
0.00348

Please provide the recorded pre-steady-state target cleavage rate for `UCCUGGUACAGCUUGCAUAGUAUUAAGUUA` , tested on MILI (PIWIL2) piRISC loaded with L1MC piRNA (26 nt).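 Also: 1 nM active piRISC with 0.1 nM target library at 33 °C single turnover.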
0.00423

Reported pre-steady-state target cleavage rate for MILI (PIWIL2) piRISC loaded with L1MC piRNA (26 nt), given `UCCUGGAACAGCAACCAUAGUAUUUAGUUA` ?;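 also: 1 nM active piRISC with 0.1 nM target library at 33 °C single turnover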
0.00431

----------
# Tested on: MILI (PIWIL2) piRISC loaded with L1MC piRNA (26 nt);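 also: 1 nM active piRISC with 0.1 nM target library at 33 °C single turnover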
# protocol: pre-steady-state target cleavage rate (min^-1); guide: L1MC piRNA 5'p-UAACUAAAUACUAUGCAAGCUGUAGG; MIWI and MILI are mouse PIWI proteins and EfPiwi is from a freshwater sponge; tags in brackets are library labels; higher = faster piRNA-guided slicing of the target
# conditions-used: auxiliary factor: 500 nM mouse GTSF1
reported-endpoint: pre-steady-state target cleavage rate
Give your answer as a number; write no unit.

Known pre-steady-state target cleavage rate results, listed for orientation:
I am curious: what pre-steady-state target cleavage rate value has been reported for `UCCUCCUUCAGCUUGCUUAGUAUUUAGUUA` ?
0.286

Which pre-steady-state target cleavage rate value is on record for `UCCUCCUACAGCUUGCAUAGUACUUAGUUA` ?
0.277

Which pre-steady-state target cleavage rate is reported for this sequence? `UCCUCGUACAGCUUGCAUAGUAUUUAGUAA`
0.24

Sample `UCCUGGAUGUCCUAGGAUAGUAUUUAGUUA` — what was its pre-steady-state target cleavage rate?
0.0104

Please look at the following sequence next.
What does the record list as pre-steady-state target cleavage rate for `UCCUCCUACUGCUUGCAUAGUAUAUAGUUA` ?
0.179
